// provenance: patent US12006330B2

Provide the reported hepatocyte CLint at 1 μM of each item.
experiment: Hepatocytes stability assay (human hepatocytes); assay type: in vitro ADME; details: both sexes, human, cryopreserved hepatocytes, cryopreserved human hepatocytes (pool of 50 mixed gender); 1 μM test compound; 1×10^6 cell/mL; 37 degrees C; read-out: CLint (μL/min/million cells)
Note: a bare number is incomplete; add the unit.

// query hepatocyte CLint at 1 μM value for entry Cc1ccnc2c1[C@H]1CC[C@H](CC1)OCC1[C@@H](NS(=O)(=O)C3CC3)CCN1C(=O)CO2 (stereo in doubt)
24 µL/min/1e6 cells

// query hepatocyte CLint at 1 μM value for entry Cc1ccnc2c1[C@H]1CC[C@H](CC1)OCC1[C@@H](NS(=O)(=O)C3COC3)CCCN1C(=O)CO2 (stereo in doubt)
6.7 µL/min/1e6 cells

// query hepatocyte CLint at 1 μM value for entry Cc1cccc2c1C1CCC(CC1)OC[C@H]1[C@@H](NS(=O)(=O)C(C)C)CCCN1C(=O)CO2 (stereo in doubt)
32 µL/min/1e6 cells

// query hepatocyte CLint at 1 μM value for entry O=S(=O)(CC1CC1)N[C@H]1CCCN2CCOc3ccccc3[C@H]3CC[C@H](CC3)OCC12 (stereo in doubt)
62 µL/min/1e6 cells

// query hepatocyte CLint at 1 μM value for entry Cc1cccc2c1C1CCC(CC1)OC[C@H]1[C@@H](NS(C)(=O)=O)CCCN1C(=O)CO2 (stereo in doubt)
28 µL/min/1e6 cells

// query hepatocyte CLint at 1 μM value for entry CC(C)S(=O)(=O)N[C@H]1CCCN2C(=O)COc3ccc(Cl)cc3[C@H]3CC[C@H](CC3)OCC12 (stereo in doubt)
5.1 µL/min/1e6 cells
